Reference source for all entries: patent US20250296953A1

// reported Growth Percent per item
tested on: 60 different human tumor cell lines; experiment: NCI Development Therapeutics Program 60 cell line screen, one dose; type: cell-based; conditions: Melanoma, SK-MEL-5
Field: numeric (%). Do not append units.

Look over these answered cases.
[
  {
    "structure-string": "C[C@]12CCc3nc(N)sc3C1=CC[C@@H]1[C@@H]2CC[C@]2(C)C(=NNC(N)=O)CC[C@@H]12",
    "quantity-unit": "%",
    "Growth Percent": 20.55
  },
  {
    "structure-string": "C[C@]12CCc3sc(NCCc4ccccc4)nc3C1=CC[C@@H]1[C@@H]2CC[C@]2(C)C(=O)CC[C@@H]12",
    "quantity-unit": "%",
    "Growth Percent": 65.96
  },
  {
    "structure-string": "C[C@]12CCc3sc(Nc4ccc(OC(F)(F)F)cc4)nc3C1=CC[C@@H]1[C@@H]2CC[C@]2(C)C(=O)CC[C@@H]12",
    "quantity-unit": "%",
    "Growth Percent": 95.89
  },
  {
    "structure-string": "CN(c1ccccc1)c1nc2c(s1)CC[C@@]1(C)C2=CC[C@@H]2[C@@H]1CC[C@]1(C)C(=O)CC[C@@H]21",
    "quantity-unit": "%",
    "Growth Percent": 32.53
  },
  {
    "structure-string": "C[C@]12CCc3sc(Nc4cccc(O)c4)nc3C1=CC[C@@H]1[C@@H]2CC[C@]2(C)C(=O)CC[C@@H]12",
    "quantity-unit": "%",
    "Growth Percent": 64.76
  },
  {
    "structure-string": "C[C@]12CCc3sc(Nc4ccc(F)cc4F)nc3C1=CC[C@@H]1[C@@H]2CC[C@]2(C)C(=O)CC[C@@H]12",
    "quantity-unit": "%",
    "Growth Percent": 76.86
  },
  {
    "structure-string": "C[C@]12CCc3nc(Nc4ccc(O)cc4)sc3C1=CC[C@@H]1[C@@H]2CC[C@]2(C)C(=O)CC[C@@H]12",
    "quantity-unit": "%",
    "Growth Percent": 62.03
  },
  {
    "structure-string": "C[C@]12CC[C@H]3[C@@H](CC=C4c5sc(-c6ccc(O)cc6)nc5CC[C@@]43C)[C@@H]1CC[C@@H]2O",
    "quantity-unit": "%",
    "Growth Percent": 71.98
  }
]

Entry under test: C[C@]12CC[C@H]3[C@@H](CC=C4c5sc(Nc6ccccc6)nc5CC[C@@]43C)[C@@H]1CC[C@@H]2O . Its Growth Percent was 34.54
